- System: Rattus norvegicus
- procedure.text: Antidyslipidemic activity against triton-induced hyperlipidemia in Charles Foster rat assessed as reduction in phospholipid level at 100 mg/kg, po after 18 hrs relative to control
- Format: functional
- Set-up: scale not given: the % may be the effect or the level left
# Lookup of reported Activity keyed by entry
Remember to quote the unit after the number.

given.smiles: CC(=O)OC[C@H]1O[C@@H](NC(=S)N/N=C/c2ccncc2)[C@H](OC(C)=O)[C@@H](OC(C)=O)[C@@H]1OC(C)=O
metric: Activity
meas.value: 11%

Bench note: what Activity did Cc1ccc(C)c(OCCCC(C)(C)C(=O)O)c1 show?
39%

Bench note: what Activity did CC(=O)OC[C@H]1O[C@@H](NC(=S)N/N=C(\C)c2cc(C)ccc2C)[C@H](OC(C)=O)[C@@H](OC(C)=O)[C@@H]1OC(C)=O show?
18%

Bench note: what Activity did CC(=O)OC[C@H]1O[C@@H](NC(=S)N/N=C(\C)c2ccc(Br)cc2)[C@H](OC(C)=O)[C@@H](OC(C)=O)[C@@H]1OC(C)=O show?
26%

Bench note: what Activity did CC(=O)OC[C@H]1O[C@@H](NC(=S)NNc2ccc([N+](=O)[O-])cc2[N+](=O)[O-])[C@H](OC(C)=O)[C@@H](OC(C)=O)[C@@H]1OC(C)=O show?
10%

Bench note: what Activity did CC(=O)OC[C@H]1O[C@@H](NC(=S)NNc2ccc(F)cc2F)[C@H](OC(C)=O)[C@@H](OC(C)=O)[C@@H]1OC(C)=O show?
25%

Bench note: what Activity did CC(=O)OC[C@H]1O[C@@H](NC(=S)NNc2ccc(F)cc2)[C@H](OC(C)=O)[C@@H](OC(C)=O)[C@@H]1OC(C)=O show?
14%

---

- procedure.text: Antioxidant activity assessed as reduction in lipid peroxidation in microsomes at 200 ug/mL measured as malondialdehyde formation by spectrophotometry relative to control
- Assay type: functional
- Set-up: scale not given: the % may be the effect or the level left
- test.parameters: Microsome
# Lookup of reported Activity keyed by entry
Reply numerically in %, unit not repeated.

Check out these entries, answers already filled in.
given.smiles: CC(=O)OC[C@H]1O[C@@H](NC(=S)NNc2ccccc2)[C@H](OC(C)=O)[C@@H](OC(C)=O)[C@@H]1OC(C)=O
measure.unit: %
Activity: 39
--
given.smiles: COc1ccc(/C(C)=N/NC(=S)N[C@@H]2O[C@H](COC(C)=O)[C@@H](OC(C)=O)[C@H](OC(C)=O)[C@H]2OC(C)=O)cc1OC
measure.unit: %
Activity: 35

Here is another compound to look at.
Bench note: what Activity did CC(=O)OC[C@H]1O[C@@H](NC(=S)N/N=C/c2ccc([N+](=O)[O-])s2)[C@H](OC(C)=O)[C@@H](OC(C)=O)[C@@H]1OC(C)=O show?
23

---

- procedure.text: Antioxidant activity assessed as reduction in generation of superoxide radicals at 200 ug/mL measured as formazone formation by spectrophotometry relative to control
- Type: functional
- Parameters: scale not given: the % may be the effect or the level left
metric: Activity (%)
Reply numerically in %, unit not repeated.

Check out these entries, answers already filled in.
given.smiles: CC(=O)OC[C@H]1O[C@@H](NC(=S)N/N=C/c2ccncc2)[C@H](OC(C)=O)[C@@H](OC(C)=O)[C@@H]1OC(C)=O
measure.unit: %
Activity: 25
--
given.smiles: CC(=O)OC[C@H]1O[C@@H](NC(=S)NNc2ccc([N+](=O)[O-])cc2[N+](=O)[O-])[C@H](OC(C)=O)[C@@H](OC(C)=O)[C@@H]1OC(C)=O
measure.unit: %
Activity: 28
--
given.smiles: COc1ccc(/C(C)=N/NC(=S)N[C@@H]2O[C@H](COC(C)=O)[C@@H](OC(C)=O)[C@H](OC(C)=O)[C@H]2OC(C)=O)cc1OC
measure.unit: %
Activity: 24
--
given.smiles: CC(=O)OC[C@H]1O[C@@H](NC(=S)N/N=C(\C)c2cccc([N+](=O)[O-])c2)[C@H](OC(C)=O)[C@@H](OC(C)=O)[C@@H]1OC(C)=O
measure.unit: %
Activity: 33
--
given.smiles: CC(=O)OC[C@H]1O[C@@H](NC(=S)N/N=C/c2ccc(Cl)cc2)[C@H](OC(C)=O)[C@@H](OC(C)=O)[C@@H]1OC(C)=O
measure.unit: %
Activity: 25

Bench note: what Activity did CC(=O)OC[C@H]1O[C@@H](NC(=S)N/N=C(\C)c2cc(C)ccc2C)[C@H](OC(C)=O)[C@@H](OC(C)=O)[C@@H]1OC(C)=O show?
30

Bench note: what Activity did CC(=O)OC[C@H]1O[C@@H](NC(=S)N/N=C(\C)c2cccc(N)c2)[C@H](OC(C)=O)[C@@H](OC(C)=O)[C@@H]1OC(C)=O show?
38

Bench note: what Activity did CC(=O)OC[C@H]1O[C@@H](NC(=S)NNc2ccccc2)[C@H](OC(C)=O)[C@@H](OC(C)=O)[C@@H]1OC(C)=O show?
32

Bench note: what Activity did COc1ccc(/C=N/NC(=S)N[C@@H]2O[C@H](COC(C)=O)[C@@H](OC(C)=O)[C@H](OC(C)=O)[C@H]2OC(C)=O)cc1 show?
33

Bench note: what Activity did COc1ccc(NNC(=S)N[C@@H]2O[C@H](COC(C)=O)[C@@H](OC(C)=O)[C@H](OC(C)=O)[C@H]2OC(C)=O)cc1 show?
37

Bench note: what Activity did CC(=O)OC[C@H]1O[C@@H](NC(=S)N/N=C(\C)c2ccc(Br)cc2)[C@H](OC(C)=O)[C@@H](OC(C)=O)[C@@H]1OC(C)=O show?
33

Bench note: what Activity did CC(=O)OC[C@H]1O[C@@H](NC(=S)N/N=C/c2ccc([N+](=O)[O-])cc2)[C@H](OC(C)=O)[C@@H](OC(C)=O)[C@@H]1OC(C)=O show?
23
